Overview of recorded inhibition at 1 µM for various molecules
Target: MMP-12 (Homo sapiens, UniProt P39900)
Sequence (P39900 106-263 limits assumed): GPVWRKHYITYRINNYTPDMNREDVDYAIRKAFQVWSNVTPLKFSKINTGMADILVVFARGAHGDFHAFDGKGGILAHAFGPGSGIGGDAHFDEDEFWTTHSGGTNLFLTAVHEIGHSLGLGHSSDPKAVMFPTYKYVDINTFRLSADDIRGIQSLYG
Test: MMP-12 Fluorometric Drug Discovery Kit inhibition assay
Format: biochemical
Design: purchased Enzo Life Sciences Inc., Farmingdale, N.Y., USA
Settings: 1 μM; read-out: % Inhibition after 20 min

{"MOLECULE": "CC(C)C[C@H](NC(=O)[C@H](Cc1ccc(-c2ccccc2)cc1)CP(=O)(O)CCc1ccccc1)C(=O)OC(C)(C)C", "UNIT": "%", "inhibition at 1 µM": 82}
{"MOLECULE": "CCCC[C@H](NC(=O)[C@H](Cc1ccc(-c2ccccc2)cc1)CP(=O)(O)CCc1ccccc1)C(=O)OC", "UNIT": "%", "inhibition at 1 µM": 89}
{"MOLECULE": "O=C(N[C@@H](Cc1c[nH]c2ccccc12)C(=O)O)[C@@H](Cc1ccc(-c2ccccc2)cc1)CP(=O)(O)CCc1ccccc1", "UNIT": "%", "inhibition at 1 µM": 79}
{"MOLECULE": "O=C(O)CCCNC(=O)C(Cc1ccc(-c2ccccc2)cc1)CP(=O)(O)CCc1ccccc1 (centres unmarked)", "UNIT": "%", "inhibition at 1 µM": 82}
{"MOLECULE": "O=C(N[C@@H](Cc1csc2ccccc12)C(=O)O)[C@@H](Cc1ccc(-c2ccccc2)cc1)CP(=O)(O)CCc1ccccc1", "UNIT": "%", "inhibition at 1 µM": 64}
